Numbers sourced from patent US20070155660A1.

targetUnderTest: MC4R (Homo sapiens)
Sequence (P32245 whole entry): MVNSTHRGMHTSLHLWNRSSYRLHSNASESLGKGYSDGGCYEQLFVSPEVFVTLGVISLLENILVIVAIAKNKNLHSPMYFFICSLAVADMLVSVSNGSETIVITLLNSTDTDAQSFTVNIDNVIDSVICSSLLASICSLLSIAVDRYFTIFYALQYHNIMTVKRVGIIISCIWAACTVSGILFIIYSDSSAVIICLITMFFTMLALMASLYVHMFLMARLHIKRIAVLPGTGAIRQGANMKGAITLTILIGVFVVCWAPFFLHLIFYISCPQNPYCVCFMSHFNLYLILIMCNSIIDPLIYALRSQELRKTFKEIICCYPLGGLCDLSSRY
experimentNotes: cAMP assay in CHO cells expressing a human melanocortin receptor
Assay type: cell-based
Parameters: expressed in transfected cells; host or cells: Chinese hamster ovary (CHO) cells
studyConditions: ratio of EC50 hMC-3R / hMC-4R
Numbered stars: 1 amine (or outer) side, 2 acyl side, 3 side chain; on linkers, the order of the positions; unused ones are H or OH. Bridge positions count the residues as written; N and C are the ends. Square brackets hold non-standard residues; d marks the D form. Peptide text beside a SMILES is read from it. ξ: configuration not given here. Suc = O=C(CCC(=O)[*:2])[*:1]; ξE = NC(CCC(=O)O)C(=O)O; ξDab = NCCC(N)C(=O)O; Ava = NCCCCC(=O)O; GABA = NCCCC(=O)O; βAla = NCCC(=O)O
quantityMeasured: Selectivity cAMP EC50 3R/4R

Use the examples below as a reference point.
molecule	targetUnderTest	quantitativeReadout
N=C(N)NCCC[C@@H]1NC(=O)[C@@H](Cc2ccccc2)NC(=O)[C@H](Cc2c[nH]cn2)NC(=O)CCC(=O)NCCC(C(N)=O)NC(=O)[C@H](Cc2c[nH]c3ccccc23)NC1=O (stereo partly drawn) [Example 2] (H[dF]RW[ξDab]-NH2; linker N-5 via Suc)	MC4R (Homo sapiens)	83
N=C(N)NCCC[C@@H]1NC(=O)[C@@H](Cc2ccccc2)NC(=O)[C@H](Cc2c[nH]cn2)NC(=O)CNC(=O)CCC(C(N)=O)NC(=O)[C@H](Cc2c[nH]c3ccccc23)NC1=O (stereo partly drawn) [Example 9] (GH[dF]RW[ξE]-NH2; lactam N-6)	MC4R (Homo sapiens)	62.86
N=C(N)NCCC[C@@H]1NC(=O)[C@@H](Cc2ccccc2)NC(=O)[C@H](Cc2c[nH]cn2)NC(=O)CCCNC(=O)CCC(C(N)=O)NC(=O)[C@H](Cc2c[nH]c3ccccc23)NC1=O (stereo partly drawn) [Example 7] ([GABA]H[dF]RW[ξE]-NH2; lactam N-6)	MC4R (Homo sapiens)	54.39

(a) N=C(N)NCCC[C@@H]1NC(=O)[C@@H](Cc2ccccc2)NC(=O)[C@H](Cc2c[nH]cn2)NC(=O)CCNC(=O)CC[C@@H](C(N)=O)NC(=O)[C@H](Cc2c[nH]c3ccccc23)NC1=O [Example 8] ([βAla]H[dF]RWE-NH2; lactam N-6 (inferred))
(b) N=C(N)NCCC[C@@H]1NC(=O)[C@@H](Cc2ccccc2)NC(=O)[C@H](Cc2c[nH]cn2)NC(=O)CCCCNC(=O)CCC(C(N)=O)NC(=O)[C@H](Cc2c[nH]c3ccccc23)NC1=O (stereo partly drawn) [Example 6] ([Ava]H[dF]RW[ξE]-NH2; lactam N-6)
*Q* // compare measured Selectivity cAMP EC50 3R/4R between a and b ; output the lower one Please respond with the label that marks your chosen entry.
*A* b
(b: 70.4, a: 111)

====

targetUnderTest: MC4R (Homo sapiens)
experimentNotes: Competitive binding assay, [125I]-NDP-α-MSH, CHO cell membranes
Parameters: expressed in transfected cells; host or cells: Chinese hamster ovary (CHO) cells
studyConditions: ratio of IC50 hMC-3R / hMC-4R
Numbered stars: 1 amine (or outer) side, 2 acyl side, 3 side chain; on linkers, the order of the positions; unused ones are H or OH. Bridge positions count the residues as written; N and C are the ends. Square brackets hold non-standard residues; d marks the D form. Peptide text beside a SMILES is read from it. ξ: configuration not given here. Suc = O=C(CCC(=O)[*:2])[*:1]; ξE = NC(CCC(=O)O)C(=O)O; ξK = NCCCCC(N)C(=O)O; ξDap = NCC(N)C(=O)O; GABA = NCCCC(=O)O; βAla = NCCC(=O)O
quantityMeasured: Selectivity Binding IC50 3R/4R

Previously resolved entries follow.
compound	Selectivity Binding IC50 3R/4R
N=C(N)NCCC[C@@H]1NC(=O)[C@@H](Cc2ccccc2)NC(=O)[C@H](Cc2c[nH]cn2)NC(=O)CCC(=O)NCCCCC(C(N)=O)NC(=O)[C@H](Cc2c[nH]c3ccccc23)NC1=O (stereo partly shown) [Example 1] (H[dF]RW[ξK]-NH2; linker N-5 via Suc)	16.7
N=C(N)NCCC[C@@H]1NC(=O)[C@@H](Cc2ccccc2)NC(=O)[C@H](Cc2c[nH]cn2)NC(=O)CCNC(=O)CC[C@@H](C(N)=O)NC(=O)[C@H](Cc2c[nH]c3ccccc23)NC1=O [Example 8] ([βAla]H[dF]RWE-NH2; lactam N-6 (inferred))	122.5

(P) N=C(N)NCCC[C@@H]1NC(=O)[C@@H](Cc2ccccc2)NC(=O)[C@H](Cc2c[nH]cn2)NC(=O)CCCNC(=O)CCC(C(N)=O)NC(=O)[C@H](Cc2c[nH]c3ccccc23)NC1=O (stereo partly shown) [Example 7] ([GABA]H[dF]RW[ξE]-NH2; lactam N-6)
(Q) N=C(N)NCCC[C@@H]1NC(=O)[C@@H](Cc2ccccc2)NC(=O)[C@H](Cc2c[nH]cn2)NC(=O)CCC(=O)NCC(C(N)=O)NC(=O)[C@H](Cc2c[nH]c3ccccc23)NC1=O (stereo partly shown) [Example 3] (H[dF]RW[ξDap]-NH2; linker N-5 via Suc)
*Q* Could you tell me which of P and Q has the lower Selectivity Binding IC50 3R/4R reading? Give the label of your selection.
*A* Q
(Q: 22.5, P: 44)
